assay: physchem; format: physicochemical; details: 25 °C, aqueous with cosolvent or surfactant or cyclodextrin, thermodynamic from solid, cyclodextrin 20% (w/v) to 40% (w/v) alone, 25° C., FIG. 1(A); read-out: solubility of Tecovirimat in water
quantity.name: solubility

Quick one: solubility for O=C(NN1C(=O)[C@@H]2[C@@H]3C=C[C@@H]([C@H]4C[C@@H]34)[C@@H]2C1=O)c1ccc(C(F)(F)F)cc1 ?
5000 to 15000 µg/mL

----------
assay: physchem; assay type: physicochemical; details: 37 °C, aqueous with cosolvent or surfactant or cyclodextrin, thermodynamic from solid, meglumine 5% (w/v) plus cyclodextrin 20% (w/v) to 40% (w/v), 37° C., FIG. 1(C); read-out: solubility of Tecovirimat in water
quantity.name: solubility

Quick one: solubility for O=C(NN1C(=O)[C@@H]2[C@@H]3C=C[C@@H]([C@H]4C[C@@H]34)[C@@H]2C1=O)c1ccc(C(F)(F)F)cc1 ?
30 to 100 mg/mL
